tested on: ACHN renal; experiment: NCI-60 one-dose screen, 48 h; conditions: 10 µM unless noted
About 83,000 compounds went through this panel and 20% of them were active in at least one assay; those are over-represented in the sample as a whole. Calls of active or inactive are those of the source. The calls were made as follows: active = growth percent below 10; inactive = the rest.
Use one of these outcomes when replying: t = active, f = inactive

Past entries and their recorded results:
[
  {
    "COMPOUND": "COc1ccc(Nc2cc(C)nc(N3CCN(c4ccnc5cc(Cl)ccc45)CC3)n2)cc1",
    "CATEGORY": "f"
  },
  {
    "COMPOUND": "COc1ccc(C(=O)COc2ccc(/C=C3\\COc4ccc(OC)cc4C3=O)cc2)cc1",
    "CATEGORY": "f"
  },
  {
    "COMPOUND": "COc1ccc(C(=O)c2sc3nc4c(c(-c5cccnc5)c3c2N)CCCC4)cc1OC",
    "CATEGORY": "f"
  },
  {
    "COMPOUND": "O=C1/C(=C/C(Cl)=C/c2ccccc2)SC(=S)N1CCc1ccc(O)cc1",
    "CATEGORY": "t"
  },
  {
    "COMPOUND": "NC(=NCCCOc1ccc(Cl)cc1)Nc1ccc(Cl)cc1",
    "CATEGORY": "t"
  },
  {
    "COMPOUND": "C#CC(F)(F)[C@]1(O)CC[C@H]2[C@@H]3CCC4=CC(=O)CCC4=C3[C@@H](c3ccc(C4CC4)cc3)C[C@@]21C",
    "CATEGORY": "f"
  },
  {
    "COMPOUND": "CC(C)(C)c1cc(/C=N\\NC(=O)/C=C/C=C/c2ccc3c(c2)OCO3)c(O)c(C(C)(C)C)c1",
    "CATEGORY": "f"
  },
  {
    "COMPOUND": "COc1cccc(C2=NN3C(C2)c2cc(Br)cc(OC)c2OC32CCN(Cc3ccccc3)CC2)c1 (centres undefined)",
    "CATEGORY": "f"
  }
]

Enquiry: Can you look up the reported call for `CCOc1ccc(-n2nc(C(=O)Nc3cc(OC)c(OC)c(OC)c3)nc2-c2cc(OC)c(OC)c(OC)c2)cc1` for me?
Return: f

Enquiry: Can you look up the reported call for `CNC(=O)c1cc(Oc2ccc(NC(=O)Nc3ccc(Cl)c(OC(F)(F)F)c3)c(F)c2)ccn1` for me?
Return: f

Enquiry: Can you look up the reported call for CC(C)(C)N1CCC1CN (centres undefined) for me?
Return: f
